System: rodent lifetime carcinogenesis bioassay, tumor incidence TD50
Experiment: carcinogenic potency in animals, long-term in vivo studies, CPDB compilation (AID 1745844)
Conditions: rat; strain Fischer 344; males; by gavage; site: kidney; lesion: tubular-cell adenocarcinoma; dosed 103 weeks; study length 105 weeks

STRUCTURE: COc1c2occc2cc2ccc(=O)oc12
TD50: 167 mg/kg/day

###

System: rodent lifetime carcinogenesis bioassay, tumor incidence TD50
Experiment: carcinogenic potency in animals, long-term in vivo studies, CPDB compilation (AID 1745844)
Conditions: rat; strain F344/DuCrj; males; in drinking water; site: nasal cavity; lesion: rhabdomyosarcoma; dosed 104 weeks; study length 105 weeks
PARAMETER_MEASURED: TD50 (mg/kg/day)

STRUCTURE: C1COCCO1
PARAMETER_MEASURED: TD50
UNIT_ABBREVIATION: mg/kg/day
EXPERIMENTAL_RESULT: 10600

###

Tested on: rodent lifetime carcinogenesis bioassay, tumor incidence TD50
Experiment: carcinogenic potency in animals, long-term in vivo studies, CPDB compilation (AID 1745844)
Conditions: rat; strain Charles River CD (Sprague-Dawley); both sexes; in feed; site: all sites; lesion: malignant lymphoma; dosed 123 weeks; study length 123 weeks

STRUCTURE: O=NO
TD50: 539 mg/kg/day

###

Tested on: rodent lifetime carcinogenesis bioassay, tumor incidence TD50
Experiment: carcinogenic potency in animals, long-term in vivo studies, CPDB compilation (AID 1745844)
Details: mouse; strain CDF1; males; in feed; site: liver; lesion: several types; types named in the paper; dosed 76 weeks; study length 85 weeks
The source made the active and inactive calls. The rule behind the calls is not given here.

STRUCTURE: CCn1cc(C(=O)O)c(=O)c2ccc(C)nc21
TD50: 3100 mg/kg/day (inactive)

###

Tested on: rodent lifetime carcinogenesis bioassay, tumor incidence TD50
Experiment: carcinogenic potency in animals, long-term in vivo studies, CPDB compilation (AID 1745844)
Settings: mouse; strain Swiss; females; i.p.; site: any site (literature study); lesion: malignant tumor; dosed 26 weeks; study length 61 weeks
PARAMETER_MEASURED: TD50 (mg/kg/day)

STRUCTURE: CN(C)N=Nc1nc[nH]c1C(N)=O
PARAMETER_MEASURED: TD50
UNIT_ABBREVIATION: mg/kg/day
EXPERIMENTAL_RESULT: 0.807

###

System: rodent lifetime carcinogenesis bioassay, tumor incidence TD50
Assay: carcinogenic potency in animals, long-term in vivo studies, CPDB compilation (AID 1745844)
Details: mouse; strain Swiss albino; females; in drinking water; site: lung; lesion: several types; types named in the paper; dosed 115 weeks; study length 115 weeks
PARAMETER_MEASURED: TD50

STRUCTURE: CC(=O)NNc1ccc(CO)cc1
PARAMETER_MEASURED: TD50
EXPERIMENTAL_RESULT: 329 mg/kg/day

###

System: rodent lifetime carcinogenesis bioassay, tumor incidence TD50
Experiment: carcinogenic potency in animals, long-term in vivo studies, CPDB compilation (AID 1745844)
Settings: mouse; strain ICR/Jcl; males; in feed; site: liver; lesion: adenoma; dosed 52 weeks; study length 65 weeks
PARAMETER_MEASURED: TD50 (mg/kg/day)

STRUCTURE: CCCCN(CCCC)N=O
EXPERIMENTAL_RESULT: 4.34

###

Test system: rodent lifetime carcinogenesis bioassay, tumor incidence TD50
Assay: carcinogenic potency in animals, long-term in vivo studies, CPDB compilation (AID 1745844)
Conditions: rat; strain Fischer 344; males; by gavage; site: testis; lesion: interstitial-cell tumor; dosed 103 weeks; study length 105 weeks
Recorded TD50 by entry

STRUCTURE: Nc1cc([N+](=O)[O-])ccc1O
TD50 / mg/kg/day: 68.2
//
STRUCTURE: COc1c2occc2cc2ccc(=O)oc12
TD50 / mg/kg/day: 14.6
//
STRUCTURE: C=C(C)CCl
TD50 / mg/kg/day: 54

###

System: rodent lifetime carcinogenesis bioassay, tumor incidence TD50
Assay: carcinogenic potency in animals, long-term in vivo studies, CPDB compilation (AID 1745844)
Conditions: rat; strain Fischer 344; males; by gavage; site: liver + multiple organs; lesion: mononuclear-cell leukemia; dosed 103 weeks; study length 104 weeks
PARAMETER_MEASURED: TD50 (mg/kg/day)

STRUCTURE: c1ccc2occc2c1
TARGET_SYSTEM: rodent lifetime carcinogenesis bioassay, tumor incidence TD50
PARAMETER_MEASURED: TD50
UNIT_ABBREVIATION: mg/kg/day
EXPERIMENTAL_RESULT: 55.3

###

Tested on: rodent lifetime carcinogenesis bioassay, tumor incidence TD50
Assay: carcinogenic potency in animals, long-term in vivo studies, CPDB compilation (AID 1745844)
Details: rat; strain Fischer 344; males; in drinking water; site: liver; lesion: several types; types named in the paper; dosed 111 weeks; study length 111 weeks
PARAMETER_MEASURED: TD50

STRUCTURE: CN(CCCC(=O)c1cccnc1)N=O
EXPERIMENTAL_RESULT: 2.97 mg/kg/day

###

Tested on: rodent lifetime carcinogenesis bioassay, tumor incidence TD50
Test: carcinogenic potency in animals, long-term in vivo studies, CPDB compilation (AID 1745844)
Settings: mouse; strain BALB/cStCrlfC3Hf/Nctr; females; in drinking water; site: lung; lesion: adenocarcinoma; dosed 52 weeks; study length 52 weeks

STRUCTURE: Cc1cc(-c2ccc(N)c(C)c2)ccc1N
TD50: 147 mg/kg/day

###

Test system: rodent lifetime carcinogenesis bioassay, tumor incidence TD50
Assay: carcinogenic potency in animals, long-term in vivo studies, CPDB compilation (AID 1745844)
Settings: rat; strain Fischer 344; males; in drinking water; site: nasal cavity; lesion: several types; types named in the paper; dosed 36 weeks; study length 104 weeks

COMPOUND: O=NN1CCCC1c1ccc[n+]([O-])c1 (stereo unspecified)
TARGET_SYSTEM: rodent lifetime carcinogenesis bioassay, tumor incidence TD50
TD50: 0.573 mg/kg/day

###

Tested on: rodent lifetime carcinogenesis bioassay, tumor incidence TD50
Test: carcinogenic potency in animals, long-term in vivo studies, CPDB compilation (AID 1745844)
Conditions: mouse; strain B6C3F1; males; by gavage; site: liver; lesion: hepatocellular carcinoma; dosed 103 weeks; study length 105 weeks
Measured TD50 values are reported for all entries that follow.

COMPOUND: ClC=C(Cl)Cl
TD50: 294 mg/kg/day
//
COMPOUND: C=CC(=O)NCO
TD50: 63.4 mg/kg/day
//
COMPOUND: Nc1ccc(Cl)cc1
TD50: 33.8 mg/kg/day
//
COMPOUND: CC(CCl)OC(C)CCl (centres undefined)
TD50: 229 mg/kg/day

###

System: rodent lifetime carcinogenesis bioassay, tumor incidence TD50
Experiment: carcinogenic potency in animals, long-term in vivo studies, CPDB compilation (AID 1745844)
Settings: mouse; strain B6C3F1; females; in feed; site: all sites; lesion: lymphoma; dosed 79 weeks; study length 94 weeks

STRUCTURE: Nc1ccc2c(c1)C(=O)c1ccccc1C2=O
TARGET_SYSTEM: rodent lifetime carcinogenesis bioassay, tumor incidence TD50
TD50: 3160 mg/kg/day

###

Test system: rodent lifetime carcinogenesis bioassay, tumor incidence TD50
Test: carcinogenic potency in animals, long-term in vivo studies, CPDB compilation (AID 1745844)
Conditions: rat; strain Fischer 344; females; by gavage; site: oral mucosa; lesion: squamous-cell papilloma; dosed 100 weeks; study length 104 weeks
PARAMETER_MEASURED: TD50

STRUCTURE: CC(C)=CCl
PARAMETER_MEASURED: TD50
EXPERIMENTAL_RESULT: 1220 mg/kg/day

###

Tested on: rodent lifetime carcinogenesis bioassay, tumor incidence TD50
Assay: carcinogenic potency in animals, long-term in vivo studies, CPDB compilation (AID 1745844)
Conditions: rat; strain Fischer 344; females; in drinking water; site: forestomach; lesion: several types; types named in the paper; dosed 37 weeks; study length 85 weeks

COMPOUND: CC(O)CN(CC(O)CO)N=O (stereo unspecified)
TD50: 0.178 mg/kg/day

###

System: rodent lifetime carcinogenesis bioassay, tumor incidence TD50
Assay: carcinogenic potency in animals, long-term in vivo studies, CPDB compilation (AID 1745844)
Details: rat; strain Fischer 344; males; by gavage; site: colon; lesion: one or several types; types not named; dosed 40 weeks; study length 104 weeks

STRUCTURE: CCCCN(N=O)C(N)=O
TARGET_SYSTEM: rodent lifetime carcinogenesis bioassay, tumor incidence TD50
TD50: 1.61 mg/kg/day

###

Tested on: rodent lifetime carcinogenesis bioassay, tumor incidence TD50
Assay: carcinogenic potency in animals, long-term in vivo studies, CPDB compilation (AID 1745844)
Settings: rat; strain Wistar; males; in feed; site: several sites; sites named in the paper; lesion: papilloma; dosed 40 weeks; study length 83 weeks

STRUCTURE: O=[N+]([O-])c1ccc(-c2cnc3ccccn23)o1
TD50: 43.7 mg/kg/day
